Assay: reduction of polyQ htt aggregates in cells – imaging, exon1htt(103Q)mCFP cells, high-content imaging, primary screen (AID 483);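 further: compound exposure lasted 3 days before fixation; percent of the per-plate median nuclei count of sample wells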
Conditions: exon1htt(103Q)mCFP cell line, aggregate imaging, at 2 µM; measured here: cell count, toxicity
measured.quantity: nuclei count (%)

1. CC(C)Oc1ccc(N2CC(C(=O)Nc3ccccc3F)CC2=O)cc1 (stereo not drawn) :: 103
2. O=S(=O)(c1ccc(-c2csc(-c3cccnc3)n2)cc1)N1CCCCC1 :: 102
3. CCCCn1c(NC(=O)CC)c(C#N)c2nc3ccccc3nc21 :: 80.6
4. CCc1[nH]nc2c1C(c1cccc(OC(=O)N3CCOCC3)c1)C(C#N)=C(N)O2 (stereo not drawn) :: 98.5
5. CN(C)c1nc(SCCOC(=O)c2ccccc2)nc(N(C)C)n1 :: 118
6. CCc1ccc(N2CC34C=CC(O3)C(C(=O)OC)C4C2=O)cc1 (stereo not drawn) :: 85.3
7. O=C(OCc1nnc(-c2ccc(Cl)cc2)o1)c1ccc(=O)n(Cc2ccccc2)n1 :: 99.3
8. Cc1cccc(Nc2nc(N)nc(CN3CCC(C(N)=O)CC3)n2)c1C :: 108
9. Cc1cc(=O)n(C)c(=O)n1CCCCCN1CCCC1 :: 106
10. CCOc1cc(C(=O)N(C)c2ccccc2)cc(OCC)c1OCC :: 97.5
11. C=CCn1c(=O)n(CCOC)c(=O)c2sc3ccccc3c21 :: 87.6
12. CNS(=O)(=O)c1cccc(C(=O)OCC(=O)c2cc(C)n(-c3ccc4c(c3)OCO4)c2C)c1 :: 97.3
13. COc1ccc(C/C(N)=N/n2cnnc2)cc1Cl :: 99.1
14. Cc1ccccc1-n1nnc2c(=O)oc3ccccc3c21 :: 98.5
15. Cc1ccc2c(CC(=O)OCc3csc(C)n3)coc2c1 :: 92.6
16. N#Cc1cnc(SCCc2ccccc2)nc1N :: 93.9
17. COc1nnc(-c2ccc(C)c(S(=O)(=O)NCCO)c2)c2ccccc12 :: 75.4
18. Cc1ccc(Cn2c(CN3CCOCC3)nc3c2c(=O)n(C)c(=O)n3C)cc1 :: 104
19. CC1CCN(C(=O)CCNS(=O)(=O)c2ccccc2)CC1 :: 101
20. O=C(Nc1nonc1NC(=O)C1CCCCC1)C1CCCCC1 :: 108
21. CCOC(=O)c1ccccc1NC(=O)CSc1nnc(COc2ccccc2C)n1C :: 97.3
22. COc1ccc2cc(C(=O)NCc3ccco3)c(=Nc3ccc(C(=O)O)cc3)oc2c1 :: 96.3
23. N#CC(C(=O)NCCc1ccccc1)c1nc2ccccc2nc1N1CCOCC1 (stereo not drawn) :: 103
24. Nc1nc(Nc2cccc3ccccc23)nc(C2CCCC2=O)n1 (stereo not drawn) :: 97.3
25. COc1cc(NC(=O)C(C)Oc2ccccc2)c(C(=O)O)cc1OC (stereo not drawn) :: 108
26. Oc1cccc(C=NCc2ccccc2)c1O :: 102
27. COc1ccc(N2CCN(C(=O)Cc3ccc(-n4c(=O)[nH]c5ccccc5c4=O)cc3)CC2)cc1 :: 96.7
28. COc1ccc2[nH]c(=O)c(CN(CC3CCCO3)C(=O)Nc3ccc(F)cc3)cc2c1 (stereo not drawn) :: 95.3
29. CCS(=O)(=O)N1CCCC(C(=O)NCCc2ccc(OC)c(OC)c2)C1 (stereo not drawn) :: 111
30. O=C(CCNS(=O)(=O)c1cccc2nsnc12)Nc1ccc2c(c1)OCCO2 :: 120
31. CCc1nc(C)c(C#N)c2cc(OC)c(OC)cc12 :: 79.3
32. Cc1ccc2nc(-c3ccccn3)cc(C(=O)N3CCN(c4ncccn4)CC3)c2c1 :: 107
33. CCc1ccc(NC(=O)CSc2nnc(Cc3cccn3C)n2-c2ccc(OC)cc2)cc1 :: 111
